# key: entry, value: protein stability index
B1: TRIM63 (parent)
chain: ANPYWTSRGSSVSMSGGRFRCPTC

# Variants of: B1
# ASSAY_PROTOCOL: protein stability index of a GFP-peptide fusion (GPS, HEK-293T) (PSI 1-6); higher = more stable;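 note: lentivirally expressed fusions sorted by FACS into six bins by GFP to DsRed ratio, PSI derived from sequencing read proportions per bin multiplied by bin number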
# CONDITION_NOTES: c terminus: a fixed tail appended

R8F | 1.27

Please look at this variant and report its protein stability index: `G17M` 2.73

Supply recorded protein stability index for `R20E` here. 1.74

Look up and report measured protein stability index for this entry: `R18Q` 1.32

Answer with the recorded protein stability index for the variant listed here: `S11Y` 1.8
